Give phage binding ELISA signal for every item shown.
# SUBJECT OF TEST: T1, PSMA Fab (biotinylated (site not stated))
# T1 construct: Biotinylated PSMA Fab captured on neutravidin coated plates in the phage ELISA; also called Anti-PSMA Fab; 006 PSMA Fab
# EXPERIMENT DESCRIPTION: clonal phage ELISA on plate-bound PSMA Fab pre-incubated with PSMA antigen as competitor
Where no end group is shown, it is not given here.

// phage binding ELISA signal value for VEPLCVPSWMCQGI (not shown: pIII filament protein of the bacteriophage) [Phage-3216] : 0.076

// phage binding ELISA signal value for IELFCKPAWMCDGF (not shown: pIII filament protein of the bacteriophage) [Phage-3217] : 0.111

// phage binding ELISA signal value for PQWMCKPEWMCNGF (not shown: pIII filament protein of the bacteriophage) [Phage-3223] : 0.0807

// phage binding ELISA signal value for DVHLCKPSWMCAGF (cysteine pairing not given here; also: fused to phage pIII, sequence not given here, not shown: pIII filament protein of the bacteriophage) [Phage-3218] : 0.0706

// phage binding ELISA signal value for ITALCKPAWMCDGF (not shown: pIII filament protein of the bacteriophage) [Phage-3224] : 0.109

// phage binding ELISA signal value for GEVLCRPIWMCNGF (not shown: pIII filament protein of the bacteriophage) [Phage-3225] : 0.123

Source listed as patent US20260242478A1.
